- Tested on: Lathyrus oleraceus
- assay-remarks: Inhibition of Succinate-cytochrome c reductase in Pisum sativum (pea) mitochondrial respiratory-chain electron-transport system at 100 uM
measured-metric: inhibition (%)

{"columns": ["molecule", "measured-metric", "recorded-measurement"],
 "data": [
  ["CC(Cl)/C=C/C(=O)N(Cc1ccc(C(F)(F)F)cc1)CC(C)C (stereo not given)", "inhibition", 1.2],
  ["CC(Cl)/C=C/C(=O)N(Cc1ccc(S(C)(=O)=O)cc1)CC(C)C (stereo not given)", "inhibition", 5.8],
  ["CC(Cl)/C=C/C(=O)N(Cc1ccc(Cl)cc1)CC(C)C (stereo not given)", "inhibition", 0],
  ["CC(Br)/C=C/C(=O)N(Cc1ccc(Cl)cc1)CC(C)C (stereo not given)", "inhibition", 0],
  ["CC(Cl)/C=C/C(=O)N(Cc1ccc(C#N)cc1)CC(C)C (stereo not given)", "inhibition", 4.6]
]}

* * *

- assay-remarks: Dissociation constant, pKa of the compound
- Assay type: physicochemical

{"columns": ["molecule", "pKa"],
 "data": [
  ["CCOc1cc(Oc2ccc(C(F)(F)F)cc2Cl)ccc1[N+](=O)[O-]", 7.63],
  ["CC(Cl)/C=C/C(=O)N(Cc1ccc(C#N)cc1)CC(C)C (stereo not drawn)", 4.82],
  ["O=C1C2=C(CCCC2)C(=O)N1c1ccc(Cl)cc1", 6.43]
]}

Origin of measurements: ChEMBL document CHEMBL3046090
